Molecular target: OsWRKY71 (Oryza sativa)
Experiment: EMSA
Details: LightShift Chemiluminescent EMSA kit protocol; 20 fmol biotin-labeled DNA, 4 pmol protein (where stated); buffer, salt, pH and temperature not stated

{"ordered residues": "AGCATTATGATGGCTAAGGATTGTCCTTTCGTTCAGGAAAAGTACAAAATCAAGGAAAATGCAGA (double strand) [OsNF-YC4 promoter P4]", "binding": "no binding"}
{"ordered residues": "TGGCTCCCTAGAGCTTTTTGTAAGTTGATCATCGAAGTAGCTAGTTCTCTTCACTTATCAGTCATCACTGTTCTATGTTCTATCTGCATTTTCCTTGATTTTGTACTTTTCCTGAACGAAAGGACAATCCTT (double strand) [OsNF-YC4 promoter P2]", "binding": "binds"}
{"ordered residues": "TCCTGAACGAAAGGACAATCCTTAGCCATCATAATGCTATGATCGACTTATTCTGAAGTCATCCGGCCTCGATCCTCTTTTGT (double strand) [OsNF-YC4 promoter P3]", "binding": "no binding"}
{"ordered residues": "ACCAGAGTTCTTTTTCCCCCTCTTCTACATAAACGAAAACAGCTTGTTGACTGGCTCCCTAGAGCTTTTTGTAAGTTGATCATCGAAGTAGCTAGTTCTCTTCACTTATCAGTCATCACTGTTCTATGTTCTATCTGCATTTTCCTTGATTTTGTACTTTTCCTGAACGAAAGGACAATCCTTAGCCATCATAATGCTATGATCGACTTATTCTGAAGTCATCCGGCCTCGATCCTCTTTTGT (double strand) [OsNF-YC4 promoter P5]", "binding": "binds"}

====

Test system: GmRAV1 (Glycine max), ORF:a1ee9a9b
Sequence (chain, as listed by the source): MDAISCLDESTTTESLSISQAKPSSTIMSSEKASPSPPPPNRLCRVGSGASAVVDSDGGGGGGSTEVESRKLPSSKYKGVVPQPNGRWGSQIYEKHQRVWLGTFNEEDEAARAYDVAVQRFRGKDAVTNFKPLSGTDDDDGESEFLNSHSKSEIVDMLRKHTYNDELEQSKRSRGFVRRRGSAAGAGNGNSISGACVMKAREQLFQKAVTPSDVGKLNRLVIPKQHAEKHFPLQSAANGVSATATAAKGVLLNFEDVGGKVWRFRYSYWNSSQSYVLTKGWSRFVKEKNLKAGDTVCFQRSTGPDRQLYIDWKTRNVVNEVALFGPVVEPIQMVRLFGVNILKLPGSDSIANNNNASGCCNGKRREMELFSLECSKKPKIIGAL
Assay: EMSA
Settings: LightShift Chemiluminescent EMSA kit protocol; 20 fmol biotin-labeled DNA, 4 pmol protein (where stated); buffer, salt, pH and temperature not stated

{"ordered residues": "GGATTACATTGAGTAATGCACATAAATTATTATAAACCTTCCATATTTGTCTTCAACAAATAATCCTAAAAATTAATGTTAACAAAAACTGACCACCTATGTTTTTAAATTAAGAAAGCATG (double strand) [GmNF-YC4-1 promoter P2]", "binding": "binds"}

These measurements were taken from paper PMC11798907.
